target: Toll-like receptor 2 (Homo sapiens); assay: Antagonistic potency at TLR2 expressed in HEK293 cells; assay type: functional, cell-based
Sequence (O60603 whole entry): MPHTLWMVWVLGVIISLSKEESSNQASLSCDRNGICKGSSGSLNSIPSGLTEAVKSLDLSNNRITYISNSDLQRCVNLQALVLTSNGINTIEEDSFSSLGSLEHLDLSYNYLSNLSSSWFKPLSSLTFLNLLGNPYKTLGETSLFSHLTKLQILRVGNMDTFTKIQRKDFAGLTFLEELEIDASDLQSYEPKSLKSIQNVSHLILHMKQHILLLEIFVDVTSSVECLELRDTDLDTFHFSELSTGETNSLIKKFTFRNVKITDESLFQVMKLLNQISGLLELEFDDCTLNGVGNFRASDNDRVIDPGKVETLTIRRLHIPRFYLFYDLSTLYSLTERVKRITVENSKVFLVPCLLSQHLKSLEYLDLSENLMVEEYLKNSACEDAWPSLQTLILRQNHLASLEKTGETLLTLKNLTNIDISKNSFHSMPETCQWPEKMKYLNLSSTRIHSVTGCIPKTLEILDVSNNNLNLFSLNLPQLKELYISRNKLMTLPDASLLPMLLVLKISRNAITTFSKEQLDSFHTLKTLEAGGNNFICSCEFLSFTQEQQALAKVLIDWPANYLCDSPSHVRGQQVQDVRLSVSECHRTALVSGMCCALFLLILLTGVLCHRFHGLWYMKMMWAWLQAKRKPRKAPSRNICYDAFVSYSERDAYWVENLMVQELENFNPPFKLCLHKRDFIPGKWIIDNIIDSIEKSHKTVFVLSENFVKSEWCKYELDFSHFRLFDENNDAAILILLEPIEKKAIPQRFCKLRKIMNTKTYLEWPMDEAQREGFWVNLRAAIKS
reported_property: pIC50
Here pIC50 is given on a logarithmic scale as minus log10 of the concentration in mol/L.

Some solved entries appear below for comparison.
- compound: "CCCCCCCCCCCCCC(=O)O[C@H](COCC[C@@H](CCCCCCC)OC(=O)CCCCCCCCCCC)COP(=O)(O)OCCNC(=O)C(Cc1ccc(O)cc1)C(=O)O (some centres undefined)"
  result_number: 5.90
- compound: "CCCCCCCCCCCCCC(=O)N[C@H](COCC[C@H](CCCCCCC)OC(=O)CCCCCCCCCCC)COP(=O)(O)OCCNC(=O)C(Cc1ccc(O)cc1)C(=O)O (some centres undefined)"
  result_number: 5.19
- compound: "CCCCCCCCCCCCCC(=O)N[C@@H](COP(=O)(O)OCCNC(=O)C(Cc1ccc(O)cc1)C(=O)O)C(=O)OCC[C@@H](CCCCCCC)OC(=O)CCCCCCCCCCC (some centres undefined)"
  result_number: 6.02
- compound: "CCCCCCCCCCCCCC(=O)N[C@@H](COCC[C@@H](CCCCCCC)OC(=O)CCCCCCCCCCC)COP(=O)(O)OCCNC(=O)C(Cc1ccc(O)cc1)C(=O)O (some centres undefined)"
  result_number: 4.66
- compound: "CCCCCCCCCCCCCC(=O)N[C@H](COCC[C@@H](CCCCCCC)NC(=O)CCCCCCCCCCC)COP(=O)(O)OCCNC(=O)C(Cc1ccc(O)cc1)C(=O)O (some centres undefined)"
  result_number: 5.28

Inquiry: What value of pIC50 has been recorded for this entry: CCCCCCCCCCCCCC(=O)N[C@H](COCC[C@@H](CCCCCCC)OC(=O)CCCCCCCCCCC)COP(=O)(O)OCCNC(=O)C(Cc1ccc(O)cc1)C(=O)O (some centres undefined)
Reply text: 5.51

Inquiry: What value of pIC50 has been recorded for this entry: CCCCCCCCCCCCCC(=O)N[C@@H](COP(=O)(O)OCCNC(=O)C(Cc1ccc(O)cc1)C(=O)O)C(=O)NCC[C@@H](CCCCCCC)OC(=O)CCCCCCCCCCC (some centres undefined)
Reply text: 6.05

Inquiry: What value of pIC50 has been recorded for this entry: CCCCCCCCCCCCCC(=O)N[C@H](COCC[C@@H](CCCCCCC)OC(=O)CCCCCCCCCCC)COP(=O)(O)OCCNC(=O)CCc1ccc(O)cc1
Reply text: 5.67

Inquiry: What value of pIC50 has been recorded for this entry: CCCCCCCCCCCCCC(=O)N[C@@H](COCC[C@H](CCCCCCC)OC(=O)CCCCCCCCCCC)COP(=O)(O)OCCNC(=O)C(Cc1ccc(O)cc1)C(=O)O (some centres undefined)
Reply text: 5.16
